tested on: NCI-H2228; experiment: cells; type: functional, cell-based; settings: Homo sapiens;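 also: growth inhibition of human NCI-H2228 cells, read out by a cell viability assay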
Description: SANGER: Inhibition of human NCI-H2228 cell growth in a cell viability assay.
Item-by-item account of pIC50
The quantity pIC50 is defined as the negative base-10 logarithm of the molar concentration.

C/C(=C\c1csc(C)n1)[C@@H]1C[C@@H]2O[C@]2(C)CCC[C@H](C)[C@H](O)[C@@H](C)C(=O)C(C)(C)[C@@H](O)CC(=O)O1 [PATUPILONE] :: 9.33

Please look at the following molecule next.
**Q:** Reported pIC50, molecule CN(NC(=O)CC(=O)NN(C)C(=S)c1ccccc1)C(=S)c1ccccc1 [ELESCLOMOL] : ____
**A:** 7.51
